IC50 tested on chymotrypsin-like (CT-L) activity of the 20S proteasome (Oryctolagus cuniculus): recorded values
Sequence (G1T4Q9 60-263): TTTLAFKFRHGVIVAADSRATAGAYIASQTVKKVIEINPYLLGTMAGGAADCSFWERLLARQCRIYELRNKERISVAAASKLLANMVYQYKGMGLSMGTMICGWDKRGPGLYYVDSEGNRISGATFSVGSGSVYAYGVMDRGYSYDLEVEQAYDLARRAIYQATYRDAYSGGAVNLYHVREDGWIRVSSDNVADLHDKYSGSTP

Some solved cases for reference:
| compound | IC50 |
| --- | --- |
| O=S(=O)(Nc1cc(Sc2nnn[nH]2)c(O)c2ccccc12)c1ccc(C2CCCCC2)cc1 [Compound 15h] | ~200 nM |
| O=S(=O)(Nc1cc(Sc2nnn[nH]2)c(O)c2ccccc12)c1ccc(-c2ccccc2)s1 [Compound 15f] | ~200 nM |
| O=S(=O)(Nc1cc(Sc2nnn[nH]2)c(O)c2ccccc12)c1ccc(-c2ccccc2)cc1 [Compound 15e] | ~200 nM |
| O=S(=O)(Nc1cc(Sc2nnn[nH]2)c(O)c2ccccc12)c1ccc(-c2ccc(F)cc2)cc1 [Compound 15j] | ~200 nM |

// below: IC50 requested for another compound
Send back chymotrypsin-like (CT-L) activity of the 20S proteasome (Oryctolagus cuniculus) IC50 of O=C(O)CSc1ccc(NS(=O)(=O)c2cccs2)c2ccccc12 only.
> 100000 nM

All values here come from paper PMC3530929.
